// data source = patent US20200392150A1

Biological target: Pig brain tubulin (Sus scrofa, UniProt P02550+P02554)
Construct: purchased; host or cells: pig brain
Sequence (P02554 whole entry): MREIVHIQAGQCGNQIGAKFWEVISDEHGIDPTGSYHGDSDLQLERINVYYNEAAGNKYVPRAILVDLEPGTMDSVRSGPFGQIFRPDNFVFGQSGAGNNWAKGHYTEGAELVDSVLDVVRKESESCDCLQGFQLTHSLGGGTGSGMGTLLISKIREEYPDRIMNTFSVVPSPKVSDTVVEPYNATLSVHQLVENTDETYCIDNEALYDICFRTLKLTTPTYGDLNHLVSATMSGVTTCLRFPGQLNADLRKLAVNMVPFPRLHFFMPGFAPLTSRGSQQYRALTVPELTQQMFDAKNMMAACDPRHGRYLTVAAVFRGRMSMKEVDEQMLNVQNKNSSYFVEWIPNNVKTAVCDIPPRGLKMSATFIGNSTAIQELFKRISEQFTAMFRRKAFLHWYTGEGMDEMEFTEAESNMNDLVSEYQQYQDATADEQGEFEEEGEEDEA
Sequence (P02550 whole entry): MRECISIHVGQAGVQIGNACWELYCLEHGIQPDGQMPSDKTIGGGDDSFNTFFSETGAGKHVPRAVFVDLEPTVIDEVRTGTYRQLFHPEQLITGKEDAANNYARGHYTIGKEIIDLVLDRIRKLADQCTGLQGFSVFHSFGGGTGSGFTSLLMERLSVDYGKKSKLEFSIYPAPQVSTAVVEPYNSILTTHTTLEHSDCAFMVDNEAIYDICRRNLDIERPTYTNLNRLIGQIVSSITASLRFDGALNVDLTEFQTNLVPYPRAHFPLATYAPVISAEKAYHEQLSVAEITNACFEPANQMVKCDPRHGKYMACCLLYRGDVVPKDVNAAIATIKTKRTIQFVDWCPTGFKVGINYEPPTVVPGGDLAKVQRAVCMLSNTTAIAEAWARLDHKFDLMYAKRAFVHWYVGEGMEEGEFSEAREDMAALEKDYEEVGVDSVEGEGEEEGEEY
Assay: In vitro tubulin polymerization assay
Assay type: biochemical
Settings: pig brain tubulin, absorbance 340 nm, 20 min, 37° C.; read-out: IC50 disruption of tubulin assembly
Method: In vitro tubulin polymerization assay Pig brain tubulin was obtained commercially and stored in aliquots at −70° C. […] The absorbance of wavelength at 340 nm was detected every 1 min for 20 min by Spectra Max 190 spectrophotometer (Molecular Device) at 37° C. The results were indicated as mean values from three independent determinations.
quantity: IC50 (µM)
Note: unit µM is implicit; provide only the numeric part.

Fill in: IC50 of COc1ccc([C@H]2[C@H](C)C(=O)N2c2cc(OC)c(OC)c(OC)c2)cc1O [Compound 97] is ___ 1.6
